test: UV absorbance and fluorescence of ribonucleoside analogues in DMSO (molar extinction coefficient, quantum yield)
Assay type: physicochemical
condition set: relative to quinine sulphate and anthracene standards
Quick rule for you: Quantum yield under 5% gets met, anything else gets not met.

Example results:
COc1cccc(C#Cc2nc3c(=O)[nH]c(N)nc3n2[C@@H]2O[C@H](CO)[C@@H](O)[C@H]2O)c1	met
Nc1ncnc2c1nc(C#Cc1ccccc1)n2[C@@H]1O[C@H](CO)[C@@H](O)[C@H]1O	not met
CSc1ccc(C#Cc2nc3c(N)ncnc3n2[C@@H]2O[C@H](CO)[C@@H](O)[C@H]2O)cc1	not met
Nc1nc2c(nc(C#Cc3ccc(F)cc3)n2[C@@H]2O[C@H](CO)[C@@H](O)[C@H]2O)c(=O)[nH]1	met
Nc1ncnc2c1nc(C#Cc1ccc(Cl)cc1)n2[C@@H]1O[C@H](CO)[C@@H](O)[C@H]1O	not met

**Q:** I'd appreciate it if you could check whether CCN(CC)c1ccc(C#Cc2nc3c(=O)[nH]c(N)nc3n2[C@@H]2O[C@H](CO)[C@@H](O)[C@H]2O)cc1 has Quantum yield smaller than 5%.
**A:** met

**Q:** Could you please tell me whether Quantum yield recorded for Nc1nc2c(nc(C#Cc3cccc4ccccc34)n2[C@@H]2O[C@H](CO)[C@@H](O)[C@H]2O)c(=O)[nH]1 is less than 5%?
**A:** not met

**Q:** Dear colleague, could you confirm whether Quantum yield of Nc1ncnc2c1nc(C#Cc1cccc(C(F)(F)F)c1)n2[C@@H]1O[C@H](CO)[C@@H](O)[C@H]1O falls below 5%? Thanks.
**A:** not met

**Q:** Is Quantum yield of Nc1nc2c(nc(C#Cc3ccc(Cl)cc3)n2[C@@H]2O[C@H](CO)[C@@H](O)[C@H]2O)c(=O)[nH]1 strictly below 5%?
**A:** met

**Q:** Hi there! Is Quantum yield for CSc1ccc(C#Cc2nc3c(=O)[nH]c(N)nc3n2[C@@H]2O[C@H](CO)[C@@H](O)[C@H]2O)cc1 below 5%, do you know?
**A:** met

**Q:** Could you please tell me whether Quantum yield recorded for Nc1ncnc2c1nc(C#Cc1ccc(F)cc1)n2[C@@H]1O[C@H](CO)[C@@H](O)[C@H]1O is less than 5%?
**A:** not met

**Q:** A record lists Nc1nc2c(nc(C#Cc3ccccc3C(F)(F)F)n2[C@@H]2O[C@H](CO)[C@@H](O)[C@H]2O)c(=O)[nH]1 . Is its Quantum yield below 5%?
**A:** met

---

Quick list: melting point per entry.

Nc1ncnc2c1nc(C#Cc1ccc(C(F)(F)F)cc1)n2[C@@H]1O[C@H](CO)[C@@H](O)[C@H]1O	196 to 198 °C (dec.)
CSc1ccc(C#Cc2nc3c(N)ncnc3n2[C@@H]2O[C@H](CO)[C@@H](O)[C@H]2O)cc1	184 to 188 °C (dec.)
Cc1ccc(C#Cc2nc3c(N)ncnc3n2[C@@H]2O[C@H](CO)[C@@H](O)[C@H]2O)cc1	196 to 198 °C (dec.)

Now consider a different compound.
Cc1ccc(C#Cc2nc3c(=O)[nH]c(N)nc3n2[C@@H]2O[C@H](CO)[C@@H](O)[C@H]2O)cc1 yielded melting point of 222 to 226 °C (dec.)

---

# λex per record follows
test: Optical properties: UV-visible spectra, fluorescence excitation and emission
Type: physicochemical
condition set: fluorescence excitation wavelength
Number only, in nm; omit the unit.

Some solved entries appear below for comparison.
COc1ccc(C#Cc2nc3c(N)ncnc3n2[C@@H]2O[C@H](CO)[C@@H](O)[C@H]2O)cc1	354
Nc1ncnc2c1nc(C#Cc1cccc3ccccc13)n2[C@@H]1O[C@H](CO)[C@@H](O)[C@H]1O	376

Consider now this further compound.
So for Nc1ncnc2c1nc(C#Cc1ccccc1)n2[C@@H]1O[C@H](CO)[C@@H](O)[C@H]1O , the logged λex turned out to be 350

---

test: UV absorbance and fluorescence of ribonucleoside analogues in DMSO (molar extinction coefficient, quantum yield)
Type: physicochemical
Listing: Wavelength at fluorescence emission maximum of selected molecules
Write it as a number; the unit nm goes unstated.

Examples from the recorded data:
COc1ccccc1C#Cc1nc2c(N)ncnc2n1[C@@H]1O[C@H](CO)[C@@H](O)[C@H]1O	429
Cc1ccc(C#Cc2nc3c(=O)[nH]c(N)nc3n2[C@@H]2O[C@H](CO)[C@@H](O)[C@H]2O)cc1	409
Nc1ncnc2c1nc(C#Cc1cccc3ccccc13)n2[C@@H]1O[C@H](CO)[C@@H](O)[C@H]1O	430
Nc1ncnc2c1nc(C#Cc1ccccc1)n2[C@@H]1O[C@H](CO)[C@@H](O)[C@H]1O	398
Nc1nc2c(nc(C#Cc3ccc(C(F)(F)F)cc3)n2[C@@H]2O[C@H](CO)[C@@H](O)[C@H]2O)c(=O)[nH]1	458
COc1ccc(C#Cc2nc3c(N)ncnc3n2[C@@H]2O[C@H](CO)[C@@H](O)[C@H]2O)cc1	380

Reported Wavelength at fluorescence emission maximum of COc1ccc(C#Cc2nc3c(=O)[nH]c(N)nc3n2[C@@H]2O[C@H](CO)[C@@H](O)[C@H]2O)cc1 : 398

Briefly, Wavelength at fluorescence emission maximum measured for COc1cccc(C#Cc2nc3c(N)ncnc3n2[C@@H]2O[C@H](CO)[C@@H](O)[C@H]2O)c1 : 400

Note to self: Wavelength at fluorescence emission maximum recorded for CSc1ccc(C#Cc2nc3c(=O)[nH]c(N)nc3n2[C@@H]2O[C@H](CO)[C@@H](O)[C@H]2O)cc1 was 425

Entry under test: Nc1ncnc2c1nc(C#Cc1cccc(C(F)(F)F)c1)n2[C@@H]1O[C@H](CO)[C@@H](O)[C@H]1O . Its Wavelength at fluorescence emission maximum was 421

Entry under test: Nc1nc2c(nc(C#Cc3ccc(Cl)cc3)n2[C@@H]2O[C@H](CO)[C@@H](O)[C@H]2O)c(=O)[nH]1 . Its Wavelength at fluorescence emission maximum was 431

---

In this section we review reported λex values for a set of compounds.
test: Optical properties: UV-visible spectra, fluorescence excitation and emission
Type: physicochemical
condition set: fluorescence excitation wavelength
Numbers only; they are read as nm.

CC(=O)c1ccc(C#Cc2nc3c(N)ncnc3n2[C@@H]2O[C@H](CO)[C@@H](O)[C@H]2O)cc1 [Compound 6f]	374

The reported value for Cc1ccc(C#Cc2nc3c(=O)[nH]c(N)nc3n2[C@@H]2O[C@H](CO)[C@@H](O)[C@H]2O)cc1 [Compound 5b, 8-(4′-Methylphenylethynyl)guanosine] in terms of λex is 363

Lab note: Nc1ncnc2c1nc(C#Cc1ccc(C(F)(F)F)cc1)n2[C@@H]1O[C@H](CO)[C@@H](O)[C@H]1O [Compound 6g] gave λex of 362

The compound listed as CC(=O)c1ccc(C#Cc2nc3c(=O)[nH]c(N)nc3n2[C@@H]2O[C@H](CO)[C@@H](O)[C@H]2O)cc1 [Compound 5f] has a reported λex of 397

Note to self: λex recorded for COc1ccc(C#Cc2nc3c(=O)[nH]c(N)nc3n2[C@@H]2O[C@H](CO)[C@@H](O)[C@H]2O)cc1 [Compound 5c, 8-(4-Methoxyphenylethynyl)guanosine] was 362

Record summary for CCN(CC)c1ccc(C#Cc2nc3c(N)ncnc3n2[C@@H]2O[C@H](CO)[C@@H](O)[C@H]2O)cc1 [Compound 6e] : reported λex = 408

For record Nc1nc2c(nc(C#Cc3ccc(C(F)(F)F)cc3)n2[C@@H]2O[C@H](CO)[C@@H](O)[C@H]2O)c(=O)[nH]1 [Compound 5g] the listed λex is 386

The measured λex associated with Nc1nc2c(nc(C#Cc3cccc4ccccc34)n2[C@@H]2O[C@H](CO)[C@@H](O)[C@H]2O)c(=O)[nH]1 [Compound 5h, 8-(Napthylethynyl)guanosine] reads 383

What the record says about CCN(CC)c1ccc(C#Cc2nc3c(=O)[nH]c(N)nc3n2[C@@H]2O[C@H](CO)[C@@H](O)[C@H]2O)cc1 [Compound 5e] : λex is 398

---

test: UV absorbance and fluorescence of ribonucleoside analogues in DMSO (molar extinction coefficient, quantum yield)
Type: physicochemical
condition set: relative to quinine sulphate and anthracene standards
Reported Quantum yield is given for each of the following compounds.
Reply with just the number (in %).

CC(=O)c1ccc(C#Cc2nc3c(=O)[nH]c(N)nc3n2[C@@H]2O[C@H](CO)[C@@H](O)[C@H]2O)cc1	0.44
COc1cccc(C#Cc2nc3c(N)ncnc3n2[C@@H]2O[C@H](CO)[C@@H](O)[C@H]2O)c1	52
Nc1nc2c(nc(C#Cc3ccc(C(F)(F)F)cc3)n2[C@@H]2O[C@H](CO)[C@@H](O)[C@H]2O)c(=O)[nH]1	0.74
COc1ccc(C#Cc2nc3c(=O)[nH]c(N)nc3n2[C@@H]2O[C@H](CO)[C@@H](O)[C@H]2O)cc1	1.2
Nc1nc2c(nc(C#Cc3ccccc3)n2[C@@H]2O[C@H](CO)[C@@H](O)[C@H]2O)c(=O)[nH]1	2.7

The recorded Quantum yield for entry COc1ccccc1C#Cc1nc2c(N)ncnc2n1[C@@H]1O[C@H](CO)[C@@H](O)[C@H]1O equals 21
